- Tested target: Integrin alpha-V/beta-6 (Homo sapiens, UniProt P06756+P18564)
- Sequence (P06756 31-889 limits assumed): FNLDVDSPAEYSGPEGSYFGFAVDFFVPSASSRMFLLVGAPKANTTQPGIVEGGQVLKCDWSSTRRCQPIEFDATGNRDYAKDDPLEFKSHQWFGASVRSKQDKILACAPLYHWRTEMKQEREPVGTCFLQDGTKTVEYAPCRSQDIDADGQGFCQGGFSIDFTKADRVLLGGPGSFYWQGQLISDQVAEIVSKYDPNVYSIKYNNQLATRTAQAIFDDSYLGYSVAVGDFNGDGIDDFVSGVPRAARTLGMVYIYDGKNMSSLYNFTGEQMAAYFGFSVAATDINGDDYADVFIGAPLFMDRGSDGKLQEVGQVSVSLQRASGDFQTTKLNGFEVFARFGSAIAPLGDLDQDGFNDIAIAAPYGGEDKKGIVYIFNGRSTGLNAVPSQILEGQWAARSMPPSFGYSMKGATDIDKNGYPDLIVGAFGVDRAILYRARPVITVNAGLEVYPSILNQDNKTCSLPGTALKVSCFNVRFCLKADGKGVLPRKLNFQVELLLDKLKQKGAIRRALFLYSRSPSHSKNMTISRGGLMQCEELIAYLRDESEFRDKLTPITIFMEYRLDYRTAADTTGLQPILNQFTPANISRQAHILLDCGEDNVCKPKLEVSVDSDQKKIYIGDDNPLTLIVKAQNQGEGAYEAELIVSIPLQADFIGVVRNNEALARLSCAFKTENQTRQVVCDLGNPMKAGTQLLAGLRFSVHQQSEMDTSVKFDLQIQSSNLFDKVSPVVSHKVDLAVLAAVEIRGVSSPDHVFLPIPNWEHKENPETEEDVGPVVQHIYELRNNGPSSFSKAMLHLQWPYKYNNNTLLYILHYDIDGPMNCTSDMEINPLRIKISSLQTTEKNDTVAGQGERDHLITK
- Sequence (P06756 891-1048 limits assumed): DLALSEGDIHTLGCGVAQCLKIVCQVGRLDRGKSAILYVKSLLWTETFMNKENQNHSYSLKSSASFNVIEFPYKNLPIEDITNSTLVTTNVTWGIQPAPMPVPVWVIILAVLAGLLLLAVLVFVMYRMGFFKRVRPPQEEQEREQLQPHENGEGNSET
- Sequence (P18564 22-788 limits assumed): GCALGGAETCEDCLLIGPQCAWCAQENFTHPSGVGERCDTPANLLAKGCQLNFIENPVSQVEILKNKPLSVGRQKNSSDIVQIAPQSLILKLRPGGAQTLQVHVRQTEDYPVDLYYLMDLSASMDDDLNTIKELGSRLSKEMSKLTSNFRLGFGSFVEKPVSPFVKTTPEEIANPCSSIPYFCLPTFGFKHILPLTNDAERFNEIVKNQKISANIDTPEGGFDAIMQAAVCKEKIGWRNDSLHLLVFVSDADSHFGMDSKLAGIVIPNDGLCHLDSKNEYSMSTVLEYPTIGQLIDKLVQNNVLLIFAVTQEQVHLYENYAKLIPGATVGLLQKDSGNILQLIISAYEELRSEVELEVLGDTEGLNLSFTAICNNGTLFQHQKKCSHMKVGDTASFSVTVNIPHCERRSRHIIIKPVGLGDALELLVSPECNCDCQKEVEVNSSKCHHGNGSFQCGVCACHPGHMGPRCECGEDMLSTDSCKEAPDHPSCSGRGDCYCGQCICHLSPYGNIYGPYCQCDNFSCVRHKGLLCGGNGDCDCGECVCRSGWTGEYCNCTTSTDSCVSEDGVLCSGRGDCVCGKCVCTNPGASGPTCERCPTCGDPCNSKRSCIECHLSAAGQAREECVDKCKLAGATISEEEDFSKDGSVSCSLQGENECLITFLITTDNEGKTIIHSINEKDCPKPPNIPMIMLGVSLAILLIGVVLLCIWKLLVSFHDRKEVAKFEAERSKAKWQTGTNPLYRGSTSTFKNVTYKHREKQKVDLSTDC
- Test method notes: Binding affinity to human Integrin alphaVbeta6 overexpressed in HEK293 cells incubated for 15 mins in presence of human serum by flow cytometry assay
- Format: cell-based
Here the recorded pIC50 is given for each entry.
Hey, just a heads up that pIC50 is the negative log base 10 of the concentration in molar.

Compound string: CC1(C)CC[C@@H](c2ccc(F)cc2[C@@H](C(=O)O)N2CC[C@@H](OCCCCc3ccc4c(n3)NCCC4)C2)OC1
Tested target: Integrin alpha-V/beta-6 (Homo sapiens, UniProt P06756+P18564)
pIC50: 7.39
--
Compound string: CC1(C)CCO[C@H](c2ccccc2[C@@H](C(=O)O)N2CC[C@@H](OCCCCc3ccc4c(n3)NCCC4)C2)C1
Tested target: Integrin alpha-V/beta-6 (Homo sapiens, UniProt P06756+P18564)
pIC50: 6.67
--
Compound string: O=C(O)[C@H](c1cc(F)ccc1[C@@H]1CCCO1)N1CC[C@@H](OCCCCc2ccc3c(n2)NCCC3)C1
Tested target: Integrin alpha-V/beta-6 (Homo sapiens, UniProt P06756+P18564)
pIC50: 7.68

Kindly consider the entry below.
QUERY: What measured pIC50 goes with O=C(O)[C@H](c1cc(F)ccc1[C@@H]1CCC2(CC2)CO1)N1CC[C@@H](OCCCCc2ccc3c(n2)NCCC3)C1 ?
RESULT: 8.04
